Source: ChEMBL document CHEMBL3621146

# experiment: Half life in Wistar Han rat at 0.5 mg/kg, iv LC-MS/MS method
# Assay type: ADME, organism-based
# cond: Wistar Han, in vivo
Consider the following compounds; for each one, report its half-life.
Field: numeric (h). Do not append units.

Query: What half-life value was documented for this compound, COC(C)c1cnc(N2CCC([C@H]3C[C@H]3COCc3ccc(S(C)(=O)=O)cc3F)CC2)nc1 (stereo in doubt; 29) ?
Reply: 1.4

Query: What half-life value was documented for this compound, COCc1cnc(N2CCC([C@H]3C[C@H]3COCc3ccc(-n4cnnn4)c(F)c3)CC2)nc1 ?
Reply: 3

Query: What half-life value was documented for this compound, COCc1cnc(N2CCC([C@H]3C[C@H]3COCc3cc(F)c(S(C)(=O)=O)c(F)c3)CC2)nc1 ?
Reply: 0.5

Query: What half-life value was documented for this compound, CC(C)c1noc(N2CCC([C@H]3C[C@H]3COCc3ccc(-n4cnnn4)cc3F)CC2)n1 ?
Reply: 1.4

Query: What half-life value was documented for this compound, O=S(=O)(CCO)c1ccc(COC[C@@H]2C[C@@H]2C2CCN(c3ncc(Cl)cn3)CC2)c(F)c1 ?
Reply: 0.9

Query: What half-life value was documented for this compound, CCS(=O)(=O)c1ccc(COC[C@@H]2C[C@@H]2C2CCN(c3ncc(COC)cn3)CC2)c(F)c1 ?
Reply: 2.1

Query: What half-life value was documented for this compound, CCOc1cnc(N2CCC([C@H]3C[C@H]3COCc3ccc(S(C)(=O)=O)c(F)c3)CC2)nc1 ?
Reply: 0.8

Query: What half-life value was documented for this compound, COCc1cnc(N2CCC([C@H]3C[C@H]3COCc3ccc(S(C)(=O)=O)c(F)c3)CC2)nc1 ?
Reply: 1.2

Query: What half-life value was documented for this compound, CS(=O)(=O)c1ccc(COC[C@@H]2C[C@@H]2C2CCN(c3ncc(F)cn3)CC2)cc1F ?
Reply: 1.5

Query: What half-life value was documented for this compound, COCc1cnc(N2CCC([C@H]3C[C@H]3COCc3ccc(CC(=O)N4CCOCC4)cc3F)CC2)nc1 ?
Reply: 0.4

Query: What half-life value was documented for this compound, CC1(OC(=O)N2CCC([C@H]3C[C@H]3COCc3ccc(-n4cnnn4)cc3F)CC2)CC1 ?
Reply: 1

Query: What half-life value was documented for this compound, COCc1cnc(N2CCC([C@H]3C[C@H]3COCc3ccc(S(C)(=O)=O)cc3F)CC2)nc1 ?
Reply: 1
